compounds and their reported MIC
Tested on: E. coli K-12 MG1655
Assay: microbe, parasite or virus in culture
Format: cell-based, Escherichia coli
Settings: Escherichia coli, MG1655; as E2; generation 20; read-out: MIC of MG1655 under the pressure of the same drug, generation 20

- STRUCTURE_SMILES_STRING: "C[C@H]1c2cccc(O)c2C(=O)C2=C(O)[C@]3(O)C(=O)C(C(N)=O)=C(O)[C@@H](N(C)C)[C@@H]3[C@@H](O)[C@@H]21"
  UNIT_DESCRIPTOR: "µg/mL"
  MIC: 32
- STRUCTURE_SMILES_STRING: "CC[C@H]1OC(=O)[C@H](C)[C@@H](O[C@H]2C[C@@](C)(OC)[C@@H](O)[C@H](C)O2)[C@H](C)[C@@H](O[C@@H]2O[C@H](C)C[C@H](N(C)C)[C@H]2O)[C@](C)(O)C[C@@H](C)CN(C)[C@H](C)[C@@H](O)[C@]1(C)O"
  UNIT_DESCRIPTOR: "µg/mL"
  MIC: 2
- STRUCTURE_SMILES_STRING: "O=C(N[C@H](CO)[C@H](O)c1ccc([N+](=O)[O-])cc1)C(Cl)Cl"
  UNIT_DESCRIPTOR: "µg/mL"
  MIC: 16
